Listed here are binders together with their documented Neutralization IC50 (RSV subtype A).
Target: RSV F on RSV-A2 virus (Respiratory Syncytial Virus (RSV-A2), UniProt P03420 26-574)
Assay: cell-based or functional assay

Binder	Neutralization IC50 (RSV subtype A)
ADI-41481 (antibody, V domains shown, also called Ab 763; Antibody Number 763) VH: QVQLVESGPGLVKPSETLSLACSVSGVSISTYYWTWIRQPPGKGLEWIGYISYSGSTNYNPSLKSRVTISADTSKNQFSLRLNSVTAADTAVYYCARTYYDFWSTYYGEFDHWGHGTLVTVSS VL: SYELTQPLSVSVALGQTARITCGGNNIESKNVHWYQQKPGQAPVVVMYRDTNRPSGIPERFSGSNSGNTATLTISRAQAGDEADYYCQVWDSGTAGVVFGGGTKVTVL	0.68 µg/mL
ADI-41523 (antibody, V domains shown) VH: QVQLVQSGAEVKKPGESLRISCKGSGDTFSNYWIGWVRQMPGKGLEWMGIIYPGDSDTRYSPSFQGQVTFSADKSISTAYLQWSSLKASDTAMYYCVRQVGGVVVTDTDNYYYGMDVWGQGTTVTVSS VL: DIRLTQSPSSLSASVGDRVTITCRASQSIRSYLNWYQQKPGKAPKLLIYSASSLQSGVPSRFSGSGSGTDFTLTISSLQPEDFATYYCQQSHSTPLTFGPGTKVDIK	> 25 µg/mL
ADI-41545 (antibody, V domains shown, also called Ab 817; Antibody Number 817) VH: QVQLVESGPGLVKPSETLSLTCTVSGGSISRYYWSWIRQSPGKGLEWIGYIYHSVITNYNPSLKSRVTISIDMSKNQFSLKLSSVTAADTAVYYCASRPLINGYGPDNYFDYWGQGTLVTVSS VL: SYVLTQPPSVSVAPGQTARITCGGNNIGSKSVHWYQRKPGQAPVLVVYDDSDRPSGIPERFSGSNSGNTATLTIIRVEAGDEADYYCQVWDNSSDHPVFGGGTKLTVL	> 25 µg/mL
ADI-41455 (antibody, V domains shown) VH: QVQLQESGPGLVKPSQTLSLTCSVSEGSVISGDYYWSWIRQSPGKGLEWLGYIHYSGSTYYNPSLKSRVTISVDTSKKQFSLKLSSVTAADTAVYYCARDLGCIGGVCSAYGLEHNYYFGMDVWGQGTTVTVSS VL: EIVLTQSPATLSLSPGERATLSCRASQSVSSYLAWYQQKPGQAPRLLIYTASNRATGIPARFSGSGSGTDFTLTISSLEPEDFAVYYCQQRSSWPPYTFGQGTKLEIK	> 25 µg/mL

Every entry's value here was drawn from patent US20260258115A1.
